Reported RE^a is given for each of the following molecules.
Target: FXR (Homo sapiens)
Construct: using a full length FXR on a natural response element; expressed in transfected cells
Sequence (Q96RI1 1-486): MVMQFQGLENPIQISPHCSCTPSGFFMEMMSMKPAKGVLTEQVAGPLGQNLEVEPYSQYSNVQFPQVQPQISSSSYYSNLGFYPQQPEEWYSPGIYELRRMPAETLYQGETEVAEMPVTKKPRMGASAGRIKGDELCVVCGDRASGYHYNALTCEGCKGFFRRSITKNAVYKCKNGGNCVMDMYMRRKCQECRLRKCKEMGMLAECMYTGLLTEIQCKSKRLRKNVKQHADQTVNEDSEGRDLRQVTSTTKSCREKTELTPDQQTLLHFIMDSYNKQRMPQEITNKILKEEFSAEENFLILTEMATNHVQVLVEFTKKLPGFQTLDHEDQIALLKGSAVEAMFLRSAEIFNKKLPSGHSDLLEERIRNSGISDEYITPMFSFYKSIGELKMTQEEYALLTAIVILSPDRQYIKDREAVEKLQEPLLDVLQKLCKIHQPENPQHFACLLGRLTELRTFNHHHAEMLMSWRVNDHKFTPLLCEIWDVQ
Test: cell-based FXR transcription assay, FXR responsive promoter linked to luciferase reporter
Conditions: cell-based FXR reporter assay; footnote a not given
API doc: respond with a numeric literal and nothing else, no unit.

Known results for molecules:
{"columns": ["Molecule", "System Name", "RE^a"],
 "data": [
  ["COC(=O)/C=C/c1cccc(N(Cc2ccc(-c3cccc(C(C)=O)c3)cc2)C(=O)C2CCCCC2)c1 [Compound 127]", "FXR (Homo sapiens)", 1.30],
  ["COC(=O)/C=C/c1cccc(N(Cc2ccc(-c3ccc(F)c(Cl)c3)cc2)C(=O)C(C)C)c1 [Compound 248]", "FXR (Homo sapiens)", 1.64],
  ["COC(=O)C=Cc1cccc(N(Cc2ccc(C=CC(=O)OC(C)C)cc2)C(=O)C2CCCCC2)c1 [Compound 152]", "FXR (Homo sapiens)", 1.97]
]}

// next item, RE^a requested
Just so you know, measured RE^a for COC(=O)C=Cc1cccc(N(Cc2ccc3c(c2OC)OC(C)(C)C=C3)C(=O)c2ccccc2)c1 [Compound 68] came out at 0.83
